Here the recorded growth is given for each entry.
tested on: HCT-116 colon; assay: NCI-60 one-dose screen, 48 h (100 = growth as untreated, 0 = no growth, -100 = all killed); settings: 10 µM unless noted
The panel holds about 83,000 compounds, 20% with a hit somewhere; the sample as a whole holds those more often.
Write the value in % as a bare number.

Worked examples, 4 compounds total:
| smiles data | growth (%) |
| --- | --- |
| Cc1ccc(Nc2nc(N)nc(CSCC(=O)NN)n2)cc1 | 103 |
| NC(=N\N=C/c1ccccc1[N+](=O)[O-])/C(N)=N\N=C/c1ccccc1[N+](=O)[O-] | 108 |
| CC(C)C(=O)Nc1n[nH]c2cc(-c3cccc(NS(=O)(=O)C4CC4)c3)ccc12 | 52.5 |
| CN(Cc1cnc2nc(N)nc(N)c2n1)c1ccc(C(=O)N[C@@H](CCc2nn[nH]n2)c2nn[nH]n2)cc1 | 18.3 |

Now turn to the next compound.
Recorded growth (compound `Cc1ccc(S(=O)(=O)n2cc(CNc3ccc(N4CCOCC4=O)cc3)c3ccccc32)cc1` ): 76.8

* * *

system: UACC-62 melanoma; test: NCI-60 one-dose screen, 48 h (100 = growth as untreated, 0 = no growth, -100 = all killed); settings: 10 µM unless noted
Compounds without any hit were thinned out: in the full panel of roughly 83,000, 20% have a hit.
endpoint label: growth (%)
Write the value in % as a bare number.

| compound | endpoint label | data value |
| --- | --- | --- |
| S=C(Cc1ccc2c(c1)CCCC2)N1CCOCC1 | growth | 95.9 |

Recorded growth (compound `Oc1ccc(CN2CCC(N3CCOCC3)CC2)c2cccnc12` ): 12.9

Recorded growth (compound `O=C1CCc2c(sc3[nH]c(=S)n(-c4ccc(OC(F)(F)F)cc4)c(=O)c23)C1` ): 10.8

Recorded growth (compound `Cn1ccc2c(c1=O)C(=O)c1nccc3c1c-2nc1ccccc13` ): 91.7

* * *

system: SR leukemia; assay: NCI-60 one-dose screen, 48 h; conditions: 10 µM unless noted
About 83,000 compounds went through this panel and 20% of them were active in at least one assay; those are over-represented in the sample as a whole. Activity calls are given as the source filed them. The calls were made as follows: active = growth percent below 10; inactive = the rest.
The reply should name one outcome from active, inactive

Solved cases below.
| compound | assigned class |
| --- | --- |
| NNC(=O)c1nc(N)n(-c2ccc(S(N)(=O)=O)cc2)n1 | inactive |
| C[n+]1cc2cc(C(N)=O)[nH]c3c(=N)c(Cl)c(N)c1c23 | inactive |
| COc1ccc(-c2nc(SC(C)C)nc(NNC(N)=S)c2C#N)cc1 | inactive |
| COc1cccc(C(=O)NCCNc2cc(-c3cn(-c4ccccc4)nc3-c3cccc(OC)c3)ccn2)c1 | active |
| CC(CCc1ccc(Cl)c(Cl)c1)NCc1ccc(C(C)(C)C)cc1 (stereo not given) | active |
| O=C(O)C1CCC(=O)N1C(=O)OCc1ccccc1 (stereo not given) | inactive |
| Nc1nc(N)c2c(n1)NC(c1ccccc1)C1CCc3ccccc3C1=N2 (stereo not given) | inactive |
| O=C(Nc1cccc(Cl)c1)c1cc(N=Nc2ccc([N+](=O)[O-])cc2Cl)ccc1O | inactive |
| COc1ccc(N2CCN(c3nc(-c4cc(OC)c(OC)c(OC)c4)nc4ccccc34)CC2)cc1 | inactive |

Now let's try a different one.
Called result for `COc1cc2ncn3c(=O)c4c5c(sc4nc3c2cc1OC)CCCC5` inactive
